Assay: self-splicing fitness, log relative to wild type (ln ratio); higher = more splicing; Tetrahymena group I intron in knt gene, E. coli kanamycin selection, DiMSum; sequences stand for … in CUCUCU…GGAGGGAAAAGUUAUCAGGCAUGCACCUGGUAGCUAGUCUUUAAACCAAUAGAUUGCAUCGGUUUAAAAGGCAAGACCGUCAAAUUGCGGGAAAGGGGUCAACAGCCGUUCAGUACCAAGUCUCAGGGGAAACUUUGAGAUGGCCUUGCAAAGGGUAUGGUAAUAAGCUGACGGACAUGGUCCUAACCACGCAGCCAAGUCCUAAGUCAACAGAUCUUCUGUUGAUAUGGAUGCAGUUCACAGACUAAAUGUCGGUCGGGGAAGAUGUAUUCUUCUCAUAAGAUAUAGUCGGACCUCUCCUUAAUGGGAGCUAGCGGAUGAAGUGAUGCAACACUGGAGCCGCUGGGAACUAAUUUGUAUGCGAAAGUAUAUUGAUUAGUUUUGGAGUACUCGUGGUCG;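 note: selection with 25 µg/mL kanamycin versus none on LB agar overnight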
Details: 30 °C
Class yes (1): self-splicing fitness (ln) at least -2. Class no (0): self-splicing fitness (ln) below -2.

See these solved cases before continuing.
# check: self-splicing fitness (ln) of `CAGCAGCAAUAUUACGGGUU` is greater than or equal to -2
no (0)

# check: self-splicing fitness (ln) of `GGCCAGCAAUAUUACGGCUG` is greater than or equal to -2
yes (1)

# check: self-splicing fitness (ln) of `ACGGAGCAAUAUUACGCACU` is greater than or equal to -2
no (0)

# check: self-splicing fitness (ln) of `AGAUAGCAAUAUUACGUAGC` is greater than or equal to -2
no (0)

# check: self-splicing fitness (ln) of `CUGCAGCAAUAUUACGCGCA` is greater than or equal to -2
no (0)

Further cases:
# check: self-splicing fitness (ln) of `CAAGAGCAAUAUUACGACUU` is greater than or equal to -2
no (0)

# check: self-splicing fitness (ln) of `AGUUAGCAAUAUUACGGAAA` is greater than or equal to -2
no (0)

# check: self-splicing fitness (ln) of `CCUCAGCAAUAUUACGUACG` is greater than or equal to -2
yes (1)

# check: self-splicing fitness (ln) of `ACAAAGCAAUAUUACGCAAU` is greater than or equal to -2
yes (1)

# check: self-splicing fitness (ln) of `UGCGAGCAAUAUUACGUUUG` is greater than or equal to -2
no (0)

# check: self-splicing fitness (ln) of `CCUUAGCAAUAUUACGGAGG` is greater than or equal to -2
no (0)

# check: self-splicing fitness (ln) of `UAUAAGCAAUAUUACGACUC` is greater than or equal to -2
yes (1)

# check: self-splicing fitness (ln) of `GAGUAGCAAUAUUACGUGGA` is greater than or equal to -2
no (0)

----------
Test: self-splicing fitness, log relative to wild type (ln ratio); higher = more splicing; Tetrahymena group I intron in knt gene, E. coli kanamycin selection, DiMSum; sequences stand for … in CUCUCU…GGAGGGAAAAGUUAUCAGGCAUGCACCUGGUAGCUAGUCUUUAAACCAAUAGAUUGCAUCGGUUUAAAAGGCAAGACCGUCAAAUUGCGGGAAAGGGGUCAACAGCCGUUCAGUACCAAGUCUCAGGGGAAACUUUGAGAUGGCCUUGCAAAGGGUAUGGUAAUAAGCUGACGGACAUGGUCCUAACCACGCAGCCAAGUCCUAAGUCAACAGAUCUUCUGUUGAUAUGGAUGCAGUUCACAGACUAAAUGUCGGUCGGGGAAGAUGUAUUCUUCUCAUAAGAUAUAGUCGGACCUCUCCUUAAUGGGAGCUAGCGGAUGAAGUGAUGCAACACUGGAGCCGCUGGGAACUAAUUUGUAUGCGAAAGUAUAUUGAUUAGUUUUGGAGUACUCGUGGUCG
Details: 37 °C
property: self-splicing fitness (ln)
Returns: the value as a bare number; no unit string appended.

A selection of reference data follows.
Data request, read-out self-splicing fitness (ln), for `AGUGAGCAAUAUUACGUGGA`
-1.49

Data request, read-out self-splicing fitness (ln), for `UCCGAGCAAUAUUACGAAAC`
-1.62

Data request, read-out self-splicing fitness (ln), for `UGCCAGCAAUAUUACGACCU`
-1.34

Data request, read-out self-splicing fitness (ln), for `AAGGAGCAAUAUUACGGUGG`
-2.45

Data request, read-out self-splicing fitness (ln), for `ACUCAGCAAUAUUACGGUUA`
-0.513

Data request, read-out self-splicing fitness (ln), for `GGGUAGCAAUAUUACGAGUC`
-0.588

Data request, read-out self-splicing fitness (ln), for `CUUGAGCAAUAUUACGUUAA`
-2.6

Data request, read-out self-splicing fitness (ln), for `AAUAAGCAAUAUUACGGUCG`
-0.232

Further cases:
Data request, read-out self-splicing fitness (ln), for `AUAAAGCAAUAUUACGUAAC`
-0.901

Data request, read-out self-splicing fitness (ln), for `UCCGAGCAAUAUUACGUUAA`
-2.57

Data request, read-out self-splicing fitness (ln), for `CUGGAGCAAUAUUACGAGUA`
-3.21

Data request, read-out self-splicing fitness (ln), for `GAAGAGCAAUAUUACGAGAG`
-3.22

Data request, read-out self-splicing fitness (ln), for `AGGCAGCAAUAUUACGCUUG`
-2.12

----------
Assay: self-splicing fitness, log relative to wild type (ln ratio); higher = more splicing; Tetrahymena group I intron in knt gene, E. coli kanamycin selection, DiMSum; sequences stand for … in CUCUCU…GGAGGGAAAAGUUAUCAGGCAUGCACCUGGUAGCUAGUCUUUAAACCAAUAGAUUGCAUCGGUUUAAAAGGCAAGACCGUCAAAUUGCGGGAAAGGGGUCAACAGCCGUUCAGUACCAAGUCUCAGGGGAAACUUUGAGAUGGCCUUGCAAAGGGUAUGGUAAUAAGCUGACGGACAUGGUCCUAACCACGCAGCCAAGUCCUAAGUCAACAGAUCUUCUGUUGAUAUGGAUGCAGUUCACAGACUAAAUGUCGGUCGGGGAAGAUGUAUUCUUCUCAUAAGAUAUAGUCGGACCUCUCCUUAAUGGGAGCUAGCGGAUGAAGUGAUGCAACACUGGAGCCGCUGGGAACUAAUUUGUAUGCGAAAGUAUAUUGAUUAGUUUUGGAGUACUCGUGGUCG
Conditions: 30 °C
property: self-splicing fitness (ln)
Returns: the value as a bare number; no unit string appended.

A selection of reference data follows.
Data request, read-out self-splicing fitness (ln), for `CGCCAGCAAUAUUACGCAUC`
-3.71

Data request, read-out self-splicing fitness (ln), for `UCUGAGCAAUAUUACGUGGC`
-3.1

Data request, read-out self-splicing fitness (ln), for `ACUUAGCAAUAUUACGUCGU`
-1.99

Data request, read-out self-splicing fitness (ln), for `UGGAAGCAAUAUUACGUCAG`
-0.777

Data request, read-out self-splicing fitness (ln), for `UUCCAGCAAUAUUACGACGA`
-0.529

Further cases:
Data request, read-out self-splicing fitness (ln), for `UGGUAGCAAUAUUACGCUCG`
0.322

Data request, read-out self-splicing fitness (ln), for `AGAGAGCAAUAUUACGUCGG`
-2.92

Data request, read-out self-splicing fitness (ln), for `CAAUAGCAAUAUUACGAGUA`
-2.31

Data request, read-out self-splicing fitness (ln), for `CAUUAGCAAUAUUACGCCGU`
-2.04

Data request, read-out self-splicing fitness (ln), for `CUAGAGCAAUAUUACGGGUG`
0.162

----------
Assay: self-splicing fitness, log relative to wild type (ln ratio); higher = more splicing; Tetrahymena group I intron in knt gene, E. coli kanamycin selection, DiMSum; sequences stand for … in CUCUCU…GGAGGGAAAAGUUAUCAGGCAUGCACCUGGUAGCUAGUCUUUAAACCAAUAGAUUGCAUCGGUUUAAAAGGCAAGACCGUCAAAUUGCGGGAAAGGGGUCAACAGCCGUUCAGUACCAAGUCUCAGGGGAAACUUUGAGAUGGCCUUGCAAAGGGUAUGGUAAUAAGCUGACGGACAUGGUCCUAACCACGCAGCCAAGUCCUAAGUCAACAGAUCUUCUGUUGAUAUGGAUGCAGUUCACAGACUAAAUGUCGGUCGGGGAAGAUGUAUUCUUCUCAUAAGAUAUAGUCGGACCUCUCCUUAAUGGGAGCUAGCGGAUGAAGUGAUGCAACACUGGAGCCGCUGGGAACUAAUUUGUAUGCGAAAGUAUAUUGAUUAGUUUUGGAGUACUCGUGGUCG
Conditions: 37 °C
self-splicing fitness (ln) listing for selected sequences.
Returns: the value as a bare number; no unit string appended.

A selection of reference data follows.
Data request, read-out self-splicing fitness (ln), for `GUGAAGCAAUAUUACGAGAA`
-0.33

Data request, read-out self-splicing fitness (ln), for `UAGGAGCAAUAUUACGGCAU`
-1.5

Data request, read-out self-splicing fitness (ln), for `CUUAAGCAAUAUUACGUGAU`
-0.627

Further cases:
Data request, read-out self-splicing fitness (ln), for `UGGGAGCAAUAUUACGCUUA`
-0.767

Data request, read-out self-splicing fitness (ln), for `UUUCAGCAAUAUUACGCGGU`
-1.92

Data request, read-out self-splicing fitness (ln), for `AUUUAGCAAUAUUACGAAUU`
-1.85

Data request, read-out self-splicing fitness (ln), for `GAUCAGCAAUAUUACGUAUU`
-1.38
